FYI, the data here is from patent US7018642B2.

tested on: P. fluorescens strain ATCC 13525; experiment: Biofilm prevention screen (96-well microplate, crystal violet); assay type: cell-based; conditions: Pseudomonas fluorescens, ATCC13525, 32 μM, positive = prevention, negative = enhancement of biofilm formation, quadruplicate, read-out: average percentage reduction of biofilm formed relative to DMSO controls
Let's look at some compounds and their measured inhibition at 32 µM.
METRIC: inhibition at 32 µM

compound=CCCCCCCCCCNC(=O)[C@H]1CCCN1 result=0%
compound="CCCCCCNC(=O)C1CCCN1C(C)=O (racemic)" result=-11%
compound=CC(C)(C)OC(=O)N1CCC[C@@H]1C(=O)NCCCCCCCCCCCCNC(=O)[C@H]1CCCN1C(=O)OC(C)(C)C result=14%
compound="CCCCCCCCCCNC(=O)C1CCCN1C(C)=O (centres unmarked)" result=-6%
compound="O=C(NCCCCCCCCCCCCNC(=O)[C@H]1CCCN1)[C@H]1CCCN1 [Compound 226, D-proline 1,12-diaminododecane bisamide]" result=-19%
compound=CCCCCCCCNC(=O)[C@@H]1CCCCN1 result=-16%
compound="CCCCCCCCCCNC(=O)[C@@H]1CCCN1 [Compound 32, L-proline n-decyl amide]" result=9%
compound=CCCCCCCCCCCCNC(=O)[C@@H]1CCCN1C(=O)OC(C)(C)C result=-1%
compound=CCCCCCCCNC(=O)[C@H]1CCCCN1C(=O)CCCCCCC result=21%
compound=CCCCCCCCCCNC(=O)[C@@H]1CCN1C(=O)OC(C)(C)C result=-12%
compound=CCCCCCCCNC(=O)[C@@H]1CCN1 result=-14%
compound=CCCCNC(=O)[C@@H]1CCCN1 result=10%
compound=CCCCCCCCCCCCNC(=O)[C@H]1CCCN1C(=O)OC(C)(C)C result=-1%
compound=CCCCCCCCNC(=O)[C@H]1CCCCN1 result=-23%
compound=CCCCCCCCNC(=O)[C@H]1CCCCN1C(C)=O result=-1%
compound=CCCCCCCCCCCCNC(=O)[C@@H]1CCN1 result=-12%
compound=CCCCNC(=O)[C@@H]1CCCN1C(=O)OC(C)(C)C result=10%
compound=CCCCCCCCNC(=O)[C@@H]1CCCN1 result=3%
compound=CCCCCCCCCCNC(=O)[C@H]1CCCN1C(=O)OC(C)(C)C result=3%
compound=CCCCNC(=O)[C@H]1CCCN1C(=O)OC(C)(C)C result=5%

* * *

system: P. aeruginosa strain PAO1; test: Biofilm prevention screen (96-well microplate, crystal violet); assay type: cell-based; conditions: Pseudomonas aeruginosa, 32 μM, positive = prevention, negative = enhancement of biofilm formation, quadruplicate, read-out: average percentage reduction of biofilm formed relative to DMSO controls
METRIC: inhibition at 32 µM (%)

molecule=CCCCCCCCNC(=O)[C@H]1CCCCN1C(=O)CCCCCCC metric="inhibition at 32 µM" quantitative_result=0
molecule="O=C(NCCCCCCCCCCCCNC(=O)[C@H]1CCCN1)[C@H]1CCCN1 [Compound 226, D-proline 1,12-diaminododecane bisamide]" metric="inhibition at 32 µM" quantitative_result=-23
molecule=CCCCCCCCNC(=O)[C@@H]1CCCCN1C(=O)OC(C)(C)C metric="inhibition at 32 µM" quantitative_result=10
molecule=CCCCCCCCNC(=O)[C@@H]1CCCCN1 metric="inhibition at 32 µM" quantitative_result=-16
molecule=CCCCCCNC(=O)[C@@H]1CCN1C(=O)OC(C)(C)C metric="inhibition at 32 µM" quantitative_result=-7
molecule=CCCCNC(=O)[C@@H]1CCCN1 metric="inhibition at 32 µM" quantitative_result=2
molecule="CCCCCCNC(=O)C1CCCN1C(C)=O (racemic)" metric="inhibition at 32 µM" quantitative_result=-13
molecule=CCCCCCCCNC(=O)[C@@H]1CCCN1C(=O)OC(C)(C)C metric="inhibition at 32 µM" quantitative_result=-6
molecule=CCCCCCCCCCCCNC(=O)[C@H]1CCCN1 metric="inhibition at 32 µM" quantitative_result=4
molecule=CCCCNC(=O)[C@H]1CCCN1C(=O)OC(C)(C)C metric="inhibition at 32 µM" quantitative_result=-4
molecule=CCCCNC(=O)[C@@H]1CCCN1C(=O)OC(C)(C)C metric="inhibition at 32 µM" quantitative_result=-5
molecule=CCCCCCCCCCNC(=O)[C@@H]1CCCN1C(=O)OC(C)(C)C metric="inhibition at 32 µM" quantitative_result=6
molecule=CCCCCCCCNC(=O)[C@@H]1CCN1C(=O)OC(C)(C)C metric="inhibition at 32 µM" quantitative_result=2
molecule=CCCCNC(=O)[C@H]1CCCN1 metric="inhibition at 32 µM" quantitative_result=-9
molecule=CCCCCCCCCCCCNC(=O)[C@@H]1CCN1 metric="inhibition at 32 µM" quantitative_result=6
molecule=CCCCCCCCCCNC(=O)[C@H]1CCCN1C(=O)OC(C)(C)C metric="inhibition at 32 µM" quantitative_result=1
molecule=CCCCCCCCCCCCNC(=O)[C@H]1CCCN1C(=O)OC(C)(C)C metric="inhibition at 32 µM" quantitative_result=-9
molecule=CCCCCCCCNC(=O)[C@@H]1CCCN1 metric="inhibition at 32 µM" quantitative_result=-37
molecule=CCCCCCCCNC(=O)[C@@H]1CCN1 metric="inhibition at 32 µM" quantitative_result=12
molecule=CCCCCCNC(=O)[C@@H]1CCN1 metric="inhibition at 32 µM" quantitative_result=-1
